Reported koff by item:
Target: T1, recombinant PRL-3 (Phosphatase of Regenerating Liver-3) (Homo sapiens, UniProt O75365)
T1 construct: Phosphatase of Regenerating Liver-3 (PRL-3), human cDNA amplified with gene-specific primers and cloned into pSKB3 (NheI/XhoI); also called apo PRL-3; PTP4A family member; source: E. coli One-Shot BL21 Star DE3, purified (Ni-NTA, TEV cleavage, Superdex 200); not shown: 6XHis, N-terminal, cleaved
T1 sequence (O75365 1-169): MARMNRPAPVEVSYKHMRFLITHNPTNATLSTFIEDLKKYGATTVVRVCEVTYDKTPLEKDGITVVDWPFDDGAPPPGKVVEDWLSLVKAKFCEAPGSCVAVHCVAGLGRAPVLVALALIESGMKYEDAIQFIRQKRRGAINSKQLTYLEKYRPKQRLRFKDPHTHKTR
Assay: BLI; BLItz; nanobody (626.57 nM) loaded on Anti-Penta-HIS (HIS1K) biosensors; PRL-3 as analyte at six concentrations; association 5 min, dissociation 2 min; 1X kinetics buffer; global fit
Details: both partners purified
Numbers only here, please. The scale is s⁻¹.

Would you please look over these solved cases?
binder	measurement_name	endpoint_value
anti-PRL-3 nanobody 26 (VHH, also called NB 26; nanobody 26-His; source: E. coli One-Shot BL21 Star DE3 (pMES4), purified (Ni-NTA, Superdex 200); not shown: 6XHis, C-terminal, kept) VHH: QVQLQESGGGLVQPGGSLKLSCVVTGLHYYTEGWFRQAPGKEREGVSCISSSDGRTDYIDSVKGRFTISEDNDNKTVYLQMNTLKPDDTGVYYCVAERGPRGSTWWETYDYWGQGTHVTVSS	koff	0.000127
anti-PRL-3 nanobody 4 (VHH, also called NB 4; source: E. coli One-Shot BL21 Star DE3 (pMES4), purified (Ni-NTA, Superdex 200); not shown: 6XHis, C-terminal, kept) VHH: QVQLQESGGGLVQTGGSLRLSCAASQSTYNFDVMGWYRLAPGKQREFLTSITNGGNIYYADSVKGRFTIARDDSKTTMYLEMNSLKPEDTAVYTCYGQTHKPRVTTSWGQGTQVTVSS	koff	0.000565
anti-PRL-3 nanobody 91 (VHH, 91 is its standard; also called NB 91; nanobody 91-His; source: E. coli One-Shot BL21 Star DE3 (pMES4), purified (Ni-NTA, Superdex 200); not shown: 6XHis, C-terminal, kept) VHH: QVQLQESGGGLVQTGGSLRLSCAASQSTFNFDVMGWYRLAPGKQREFLTSITNGGNIYYADSVKGRFTIARDDSKTTMYLEMNSLKPEDTAVYTCYGQTHKPRVTTSWGQGTQVTVSS	koff	0.00139
anti-PRL-3 nanobody 19 (VHH, also called NB 19; source: E. coli One-Shot BL21 Star DE3 (pMES4), purified (Ni-NTA, Superdex 200); not shown: 6XHis, C-terminal, kept) VHH: QVQLQESGGGLVQAGGSLGLSCAASRSIFNFKVMGWYRQAPGKQRELVASITNSDNTYYADSVKGRFTISREDAKTTMYLEMNSLKPEDTAVYRCYGQNWGLRATTYWGQGTQVTVSS	koff	0.000386

Please report the recorded koff for anti-PRL-3 nanobody 84 (VHH, also called NB 84; source: E. coli One-Shot BL21 Star DE3 (pMES4), purified (Ni-NTA, Superdex 200); not shown: 6XHis, C-terminal, kept) VHH: QVQLQESGGGLVQAGGSLGLSCAASRSIFNFKVMGWYRQAPGKQRELVASITNSDNTYYADSVKGRFTISREDAKTTMYLEMNSLKPEDTTVYRCYGQNWGLRATTYWGQGTQVTVSS . 0.000332

Please report the recorded koff for anti-PRL-3 nanobody 16 (VHH, also called NB 16; source: E. coli One-Shot BL21 Star DE3 (pMES4), purified (Ni-NTA, Superdex 200); not shown: 6XHis, C-terminal, kept) VHH: QVQLQESGGGLVQTGGSLRLSCAASQSTFNFDVMGWYRLAPGKQREFLTSITNGGNIYYADSVKGRFTTARDDSKTTMYLEMNSLKPEDTAVYTCYGQTHKPRVTTSWGQGTQVTVSS . 0.000624
